- Test system: T1, human PD-L1 ECD-His (human, UniProt Q9NZQ7 19-238)
- T1 construct: extracellular domain; Analyte in all SPR and BLI runs; also called hPD-L1_ECD-His; hPD-L1 ECD-His; not shown: His tag
- T1 sequence (Q9NZQ7 19-238): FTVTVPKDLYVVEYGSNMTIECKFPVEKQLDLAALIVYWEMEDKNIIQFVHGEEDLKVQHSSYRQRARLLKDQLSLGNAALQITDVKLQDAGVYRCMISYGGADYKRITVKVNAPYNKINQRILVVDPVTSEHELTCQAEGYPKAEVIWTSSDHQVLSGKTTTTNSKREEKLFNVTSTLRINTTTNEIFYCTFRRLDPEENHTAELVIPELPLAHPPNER
- Test method notes: BLI Octet RED96, biotinylated antibody on SA sensor, hPD-L1-His analyte, 1:1 fit
Simple rule here: Kd less than 1 nM is True, otherwise False.

INSERT INTO results (binder, category) VALUES
  ('PL3#7-19 mtIgG1 (antibody, V domains shown, Antibody was biotinylated (NHS-PEG4-biotin, sites not specified) for the Octet assay of Table 11., N297A mutant human IgG1; also called PL3#7-19 parental mtIgG1) VH: QVQLVQSGAEVKKPGSSVKVSCKASGGTFSSYPISWVRQAPGQGLEWMGRIIPILGIANYAQKFQGRVTITADKSTSTAYMELSSLRSEDTAVYYCARSRDGYAFGAFDVWGQGTLVTVSS VL: QSVVTQPPPVSGAPGQRVTISCTGSSSNIGGGYDVHWYQQLPGTAPKLLIYGNSTRPSGVPDRFSGSKSGTSASLAITGLQAEDEADYYCQTYDSSLSATVVFGGGTKLTVLG', 'True'),
  ('PL3#7 mtIgG1 (antibody, V domains shown, Antibody was biotinylated (NHS-PEG4-biotin, sites not specified) for the Octet assay of Table 11., N297A mutant human IgG1) VH: QVQLVQSGAEVKKPGSSVKVSCKASGGTFSSYPISWVRQAPGQGLEWIGRIIPILGIANYAQKFQGRVTITADKSTSTAYMELSSLRSEDTAVYYCARSRDGYAFGAFDIWGQGTLVTVSS VL: QSVVTQPPPVSGAPGQRVTISCTGSSSNIGAGYDVHWYQQLPGTAPKLLIYGNSNRPSGVPDRFSGSKSGTSASLAITGLQAEDEADYYCQTYDSSLSARVVFGGGTKLTVLG', 'False'),
  ('PL3#7-54 mtIgG1 (antibody, V domains shown, Antibody was biotinylated (NHS-PEG4-biotin, sites not specified) for the Octet assay of Table 11., N297A mutant human IgG1) VH: QVQLVQSGAEVKKPGSSVKVSCKASGGTFSSYPISWVRQAPGQGLEWMGRIIPILGIADYAQKFQGRVTITADKSTSTAYMELSSLRSEDTAVYYCARSRPGYAFGAFDIWGQGTLVTVSS VL: QSVVTQPPPVSGAPGQRVTISCTGSSSNIGQGYDVHWYQQLPGTAPKLLIYANSNRPSGVPDRFSGSKSGTSASLAITGLQAEDEADYYCQTYDSSLSARVVFGGGTKLTVLG', 'True'),
  ('PL2#3 mtIgG1 (N297A) (antibody, V domains shown, N297A mutant of human IgG1 Fc backbone) VH: EVQLVQSGGGLVKPGGSLRLSCAASGFTFSSYTMNWVRQAPGKGLEWVSSISSGSDYLYYADSVKGRFTISRDNAKNSLYLQMNSLRAEDTAVYYCARNELRWYPQAGAFDRWGQGTMVTVSS VL: QSVVTQPPSMSAAPGQRVTISCSGSSSYIESSYVGWYQQLPGTAPRLLIYDDDMRPSGIPDRFSGSKSGTSATLAITGLQTGDEADYYCEIWRSGLGGVFGGGTKLTVLS', 'False'),
  ('PL3#7-43 mtIgG1 (antibody, V domains shown, Antibody was biotinylated (NHS-PEG4-biotin, sites not specified) for the Octet assay of Table 11., N297A mutant human IgG1; also called PL3#7-43 parental mtIgG1) VH: QVQLVQSGAEVKKPGSSVKVSCKASGGTFSSYPISWVRQAPGQGLEWMGRIIPILGIANYAQKFQGRVTITADKSTSTAYMELSSLRSEDTAVYYCARSRPGYAFGAFDIWGQGTLVTVSS VL: QSVVTQPPPVSGAPGQRVTISCTGSSSNVGAGYDVHWYQQLPGTAPKLLIYGNSNRSSGVPDRFSGSKSGTSASLAITGLQAEDEADYYCQTYDSSGSARVVFGGGTKLTVLG', 'True');
